# method notes: qHTS for ATAD5 Antagonist screened against the NCATS CANVASS Library (AID 1347370); note: nearly all actives have a fitted effect of over 65% in size
# experimental conditions: HEK293T-ATAD5-luc, 5-FUrd stimulated, luminescence, 16 h; series mostly up to 46.1 µM
Records with an inconclusive call do not appear. The source made the active and inactive calls. Calls come from the whole dose curve; as a rule, active = well fitted inhibition curve with a large enough effect; inconclusive = small, poorly fitted or top-dose-only effect; inactive = no such curve, though single readings can be large or run the other way. Square brackets hold non-standard residues; d marks the D form. Peptide text beside a SMILES is read from it. ξ: configuration not given here. ξL = CC(C)CC(N)C(=O)O
Valid outcomes are listed here; reply with one: 1.0 = active, 0.0 = inactive

[
  {
    "molecule": "CC[C@@H](C)[C@H]1NC(=O)C(CC(C)C)NC(=O)[C@@H](CC(C)C)NC(=O)[C@H](Cc2c[nH]c3ccccc23)NC(=O)CNC(=O)[C@@H](CC(N)=O)NC1=O (stereo partly drawn) (cyclo(GW[dL][ξL][dI][dN]))",
    "label class": 0.0
  }
]

Req: Call for entry C[C@@]12CCC[C@@](C)(C(=O)O)[C@H]1C[C@@H](O)[C@@]13C[C@@H](CC[C@@H]21)[C@](C)(O)C3 :
Resp: 0.0

Req: Any idea what this test logged for C/C(=C\[C@H](C)C(=O)C[C@H](O)CC1CC(=O)NC(=O)C1)[C@@H]1OC(=O)CCCC/C=C/C[C@@H](O)[C@@H]1C ?
Resp: 1.0
